Where do the numbers come from? From ChEMBL document CHEMBL3870331.

- System: Mycobacterium tuberculosis
- Assay Remarks: Antimycobacterial activity against Mycobacterium tuberculosis H37Rv ATCC 27294 measured after 28 days by MABA method
- Assay type: functional
- Cond: H37Rv ATCC 27294, 672 h
Would you mind telling me the reported MIC99 of each entry?
Please answer in the form of a number followed by its unit of measurement.

- CC[C@@H](CO)NCCN[C@@H](CC)CO [ETHAMBUTOL]: 1.56 µg/mL
- NC(=O)c1cnccn1 [PYRAZINAMIDE]: 6.25 µg/mL

Field: next compound
Per the records, this compound ( NNC(=O)c1ccncc1 [ISONIAZID] ) has MIC99 equal to 0.098 µg/mL
